# ASSAY TEXT: chemical genetic growth profiling, strain panel (AID 1159580);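 further: tested at 20 µM; growth read once vehicle control cultures reached saturation at 30 °C; 1 = growth at the plate median or of vehicle wells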
# CONDITION INFO: S. cerevisiae deletion strains, growth OD, locus YDL035C, strain GPR1
Hit rate of the full screen: of about 5,500 compounds, about 2,000 (36%) were called active. Another 18% or so got no clear call; they are omitted. No stated cut-off is given here; in the data, active means normalized growth mostly below about 0.91 (no sharp cut-off); inconclusive means no clear call, values can overlap the other calls; inactive means mostly above about 0.92. The list shows a part of the results.
Give your call using only these classes: 1 (active), -1 (inactive)

Q: Please share the test call associated with COc1cc([C@@H]2c3cc4c(c(O)c3C[C@H]3COC(=O)[C@@H]32)OCO4)cc(OC)c1OC .
Result: -1

Q: Please share the test call associated with Cc1c(Cl)cccc1Nc1ccccc1C(=O)O .
Result: 1

Q: Please share the test call associated with COc1ccc2c(c1OC)C(=O)OC2[C@H]1c2c(cc3c(c2OC)OCO3)CCN1C (stereo not given in full) .
Result: -1

Q: Please share the test call associated with CCCNC1CCc2nc(N)sc2C1 (stereo not given) .
Result: -1

Q: Please share the test call associated with COc1ccc([C@H]2Oc3cc(OC)cc(OC)c3C[C@H]2O)cc1 .
Result: -1

Q: Please share the test call associated with CCCC(=O)O[C@]1(C(=O)CO)CCC2[C@@H]3CCC4=CC(=O)CC[C@]4(C)C3[C@@H](O)C[C@@]21C (stereo not given in full) .
Result: -1

Q: Please share the test call associated with Cc1cccc(Nc2ccccc2C(=O)O)c1C .
Result: -1

Q: Please share the test call associated with COc1ccc2c(c1)O[C@H]1c3ccc(OC)cc3OC[C@@H]21 .
Result: -1

Q: Please share the test call associated with Cc1cccc(C(=O)O)c1O .
Result: -1

Q: Please share the test call associated with COc1ccc2c(c1O)OCC1c3cc4c(cc3OC21)OCO4 (stereo not given) .
Result: -1

---

# ASSAY TEXT: chemical genetic growth profiling, strain panel (AID 1159580);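 further: tested at 20 µM; growth read once vehicle control cultures reached saturation at 30 °C; 1 = growth at the plate median or of vehicle wells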
# CONDITION INFO: S. cerevisiae deletion strains, growth OD, locus YFR019W, strain FAB1
Screen size: about 5,500 compounds; about 2,000 (36%) were called active. Not shown: some 18% with an inconclusive outcome. Rule as the data show it: active = normalized growth mostly below about 0.91 (no sharp cut-off); inconclusive = no clear call, values can overlap the other calls; inactive = mostly above about 0.92. The list shows a part of the results.
Give your call using only these classes: active, inactive

Q: Please share the test call associated with O=C(NNc1ccc(I)cc1)c1cc(Cl)cc(Cl)c1 .
Result: active

Q: Please share the test call associated with OC(=Cc1nc2ccccc2nc1C=C(O)c1ccc(Cl)cc1)c1ccc(Cl)cc1 .
Result: inactive

Q: Please share the test call associated with CC1(C)OC(=O)C(=Cc2cccn2-c2ccc(OC(F)(F)F)cc2)C(=O)O1 .
Result: inactive

Q: Please share the test call associated with O=C(Nc1ccc(OC(F)(F)F)cc1)N1CCN(c2nc(-c3ccccc3)ns2)CC1 .
Result: inactive

Q: Please share the test call associated with Cc1c(C(=O)N(Cc2ccccc2)Cc2cccs2)cnn1-c1ccc(Cl)cc1 .
Result: inactive

Q: Please share the test call associated with Cc1ccc(NNC(=O)c2c(C)noc2C)cc1Cl .
Result: inactive

Q: Please share the test call associated with O=C(Nc1ccc(OC(F)(F)F)cc1)OC1CN(C(c2ccccc2)c2ccccc2)C1 .
Result: inactive

Q: Please share the test call associated with Cc1ccc(NS(=O)(=O)c2ccc(-c3csc(C)n3)s2)c(C)c1 .
Result: inactive

Q: Please share the test call associated with Cc1onc(-c2c(Cl)cccc2Cl)c1C(=O)NNc1c(Cl)cccc1Cl .
Result: inactive

Q: Please share the test call associated with COC(=O)c1sccc1-c1ccc(/C=C/[N+](=O)[O-])o1 .
Result: active

Q: Please share the test call associated with S=c1[nH]nc(Nc2ccc(I)cc2)s1 .
Result: inactive

Q: Please share the test call associated with Cc1c(-c2ccnn2C(=O)c2ccco2)cnn1-c1ccccc1 .
Result: inactive

Q: Please share the test call associated with CC(=O)ON=C1c2cc([N+](=O)[O-])ccc2-c2ccc([N+](=O)[O-])cc21 .
Result: inactive

Q: Please share the test call associated with ClC1=C(C=Nc2ccc(Cl)cc2)CSc2ccc(Cl)cc21 .
Result: inactive

Q: Please share the test call associated with Cc1nc(-c2ccc(S(=O)(=O)Nc3ccc(Br)cc3Cl)s2)cs1 .
Result: inactive

Q: Please share the test call associated with CC(C)(C)c1ccc(C(=O)Nc2ccc(C(F)(F)F)cc2)s1 .
Result: inactive

Q: Please share the test call associated with Cc1c(C(=S)Nc2ccccc2)sc2ccccc12 .
Result: inactive

Q: Please share the test call associated with Cc1onc(-c2c(F)cccc2Cl)c1C(=O)NNc1cc(Cl)cc(Cl)c1 .
Result: inactive

Q: Please share the test call associated with O=[N+]([O-])c1ccc2oc(C(O)c3ccc(-c4ccccc4)cc3)cc2c1 (centres undefined) .
Result: inactive

Q: Please share the test call associated with Cc1ccc(NS(=O)(=O)c2ccc(Cl)cc2)c(N=Cc2cc(Cl)cc(Cl)c2O)c1 .
Result: active

Q: Please share the test call associated with CC(C)(C)c1ccc(C(=O)NNc2c(Cl)cccc2Cl)cc1 .
Result: inactive

Q: Please share the test call associated with O=[N+]([O-])c1ccc(Sc2ssc(=S)c2-c2ccccc2)nc1 .
Result: active

Q: Please share the test call associated with Cc1onc(-c2c(F)cccc2Cl)c1C(=O)ON=C1C2CC3CC(C2)CC1C3 .
Result: inactive

Q: Please share the test call associated with Cc1ccc(NC(=O)c2ccccc2N=Cc2cc(Cl)cc(Cl)c2O)c(N=Cc2cc(Cl)cc(Cl)c2O)c1 .
Result: active

---

# ASSAY TEXT: chemical genetic growth profiling, strain panel (AID 1159580);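 further: tested at 20 µM; growth read once vehicle control cultures reached saturation at 30 °C; 1 = growth at the plate median or of vehicle wells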
# CONDITION INFO: S. cerevisiae deletion strains, growth OD, locus YEL037C, strain rad23, stronger effect = lower value
In all, about 5,500 compounds went through this assay and about 2,000 (36%) were called active. Roughly 18% stayed inconclusive and do not appear here. The list shows a part of the results.
Could you please report measured normalized growth for the items listed next?
Lab note: jot down the number only; don't add units.

Q: Requested field: normalized growth. Item: CO/N=C(\C(=O)N[C@@H]1C(=O)N2C(C(=O)O)=C(CSc3nc(=O)c(O)nn3C)CS[C@H]12)c1csc(N)n1
Result: 0.969

Q: Requested field: normalized growth. Item: Cc1coc2c1C(=O)C(=O)c1c-2ccc2c1CCCC2(C)C
Result: 0.947

Q: Requested field: normalized growth. Item: Cc1cccc(Nc2ccccc2C(=O)O)c1C
Result: 0.909

Q: Requested field: normalized growth. Item: CO/N=C(\C(=O)NC1C(=O)N2C(C(=O)O)=C(COC(N)=O)CSC12)c1ccco1 (centres undefined)
Result: 0.967

Q: Requested field: normalized growth. Item: O=c1cc[nH]c(=S)[nH]1
Result: 0.991

Q: Requested field: normalized growth. Item: CCCOc1ccc(C(=O)OCCN(CC)CC)cc1N
Result: 0.979

Q: Requested field: normalized growth. Item: CCCCN1CCCCC1C(=O)Nc1c(C)cccc1C (centres undefined)
Result: 0.993

Q: Requested field: normalized growth. Item: COc1cc2occ(-c3ccccc3)c(=O)c2c(OC)c1C
Result: 0.977

Q: Requested field: normalized growth. Item: CC1(C)O[C@H]2[C@H](O)C[C@](O)(C(N)=O)C[C@H]2O1
Result: 1.02

Q: Requested field: normalized growth. Item: COC(=O)[C@@H]1OC(=O)[C@H]2O[C@@]23[C@@]1(C)CCC1[C@@]2(C)CCC(=O)C(C)(C)C2C[C@@H](OC(C)=O)[C@]13C (some centres undefined)
Result: 0.974

Q: Requested field: normalized growth. Item: C=CCCCCCCCCCCCC(O)CC(O)COC(C)=O (centres undefined) (tested in a mixture with another compound)
Result: 0.966

Q: Requested field: normalized growth. Item: CCCCC(=O)Oc1ccccc1C(=O)O
Result: 0.984

Q: Requested field: normalized growth. Item: COc1cc(OC)c2c(=O)c(-c3ccccc3)coc2c1
Result: 0.998

Q: Requested field: normalized growth. Item: Cc1ccc(C)c(OCCCC(C)(C)C(=O)O)c1
Result: 0.979

Q: Requested field: normalized growth. Item: CCOC(=O)Nc1nc2ccccc2[nH]1
Result: 0.984

Q: Requested field: normalized growth. Item: O=C1[C@H](CCC(O)c2ccc(F)cc2)[C@@H](c2ccc(O)cc2)N1c1ccc(F)cc1 (some centres undefined)
Result: 0.957

Q: Requested field: normalized growth. Item: CCCCOC(=O)c1ccccc1C(=O)OCCCC
Result: 0.992

Q: Requested field: normalized growth. Item: CO/N=C(\C(=O)N[C@@H]1C(=O)N2C(C(=O)O)=C(COC(C)=O)CS[C@H]12)c1csc(N)n1
Result: 0.991

Q: Requested field: normalized growth. Item: CC(=O)OCC[C@H](C)CCC=C(C)C
Result: 0.995

Q: Requested field: normalized growth. Item: Cc1c(S(=O)(=O)O)oc2c1C(=O)C(=O)c1c-2ccc2c1CCCC2(C)C
Result: 0.947

Q: Requested field: normalized growth. Item: CCCCNc1ccc(C(=O)OCCN(C)C)cc1
Result: 1.02

Q: Requested field: normalized growth. Item: C[C@H]1CC[C@@H](C(C)(C)O)CC2=C1CC[C@@H]2C
Result: 0.994

Q: Requested field: normalized growth. Item: CCN(CC)C(=O)c1cccc(C)c1
Result: 1.04

Q: Requested field: normalized growth. Item: CCCCCCOc1ccccc1C(N)=O
Result: 0.943

These measurements were taken from PubChem BioAssay AID1159580.
